This collection of values is drawn from PubChem BioAssay AID1385.

# tested-on: DNA repair protein RAD51 homolog 1 (Homo sapiens)
# assay-notes: blockers of RAD51-mediated homologous recombination – biochemical, fluorescence, primary screen (AID 1385)
# assay-context: hRad51 DNA strand exchange, fluorescence dequenching; at 10 µM
The campaign covered roughly 200,000 compounds. About 170 (0.085%) were called active.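 The calls were made as follows: active = inhibition above 40% at the single screening dose; inactive = the rest.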 The full list was thinned out, with actives kept by preference.
Respond using exactly one of the listed classes: t for active, f for inactive

Examples from the recorded data:
O=[N+]([O-])c1cc([N+](=O)[O-])c2cccnc2c1O	f
CCN(CC)CCOc1ccc2c(c1)C(=NNC(=O)c1ccccn1)c1cc(OCCN(CC)CC)ccc1-2	t
CCn1c(SCC(=O)Nc2sc(C)c(C)c2C#N)nnc1C1CC1	f

In: Outcome logged for `COc1cc(OC)c(OC)cc1/C=N/Nc1ncnc2c1[nH]c1ccc(C)cc12` in this assay:
Out: f

In: Outcome logged for OC(CNCc1ccc2c(c1)OCO2)COc1ccccc1 (stereo not drawn) in this assay:
Out: f

In: Outcome logged for CCOc1ccc(C2NC(=S)NC3=C2CCc2ccccc23)cc1 (stereo not drawn) in this assay:
Out: f

In: Outcome logged for `O=C1/C(=C/c2coc3ccc(O)cc3c2=O)SC(=S)N1c1ccccc1` in this assay:
Out: f

In: Outcome logged for `CC(C)(C)c1cc(NC(=O)NN2CCOCC2)nn1-c1c(Cl)cc(Cl)cc1Cl` in this assay:
Out: f

In: Outcome logged for `CCSC1=NCCN1S(=O)(=O)c1ccc(F)cc1` in this assay:
Out: f

In: Outcome logged for `O=C(Cc1cccc2ccccc12)NNC(=O)Nc1ccc(Cl)cc1` in this assay:
Out: f

In: Outcome logged for `Cc1cc(C)nc(Nc2n[nH]c(-c3ccccc3N)n2)n1` in this assay:
Out: f

In: Outcome logged for C/C(CC(=O)NC(C)c1ccccc1)=N\NC(N)=S (stereo not drawn) in this assay:
Out: f

In: Outcome logged for `Cc1ccc(NC(=O)/C(=C/c2ccc([N+](=O)[O-])cc2)NC(=O)c2ccccc2)cc1` in this assay:
Out: f

In: Outcome logged for `CCOC(=O)c1cc(C)nc(S(C)(=O)=O)c1C#N` in this assay:
Out: f

In: Outcome logged for `COc1ccc(NC(=O)CSc2ncnc3[nH]ncc23)cc1` in this assay:
Out: f

In: Outcome logged for CCC(C)(NC(=O)c1ccccn1)C(=O)NC1CCCCC1 (stereo not drawn) in this assay:
Out: f

In: Outcome logged for `Cc1ccc(-c2cc(C(=O)NN)n[nH]2)o1` in this assay:
Out: f

In: Outcome logged for `NNC(=O)c1ccc(COCC(F)(F)C(F)F)cc1` in this assay:
Out: f

In: Outcome logged for `CCOc1cc(NC(=O)c2ccccn2)c(OCC)cc1NC(=O)c1ccc(OC)cc1` in this assay:
Out: f

In: Outcome logged for `Cn1nccc1NS(=O)(=O)c1ccc(F)cc1` in this assay:
Out: f
